System: FB
PROCEDURE DETAILS: Euclidean distance of Cell Painting phenotypic profile (signed KS, 77 features) to DMSO centroid (dimensionless distance); 5 or 10 uM (library dependent); higher = stronger phenotypic change vs DMSO (phenoactivity)
CONDITION NOTES: 48 h
This section presents compounds with their documented Euclidean distance values.
Could you respond with only the numeric value?

The cases that follow already have their Euclidean distance on record.
NCCCS(=O)(=O)O [Homotaurine]    0.97
COc1cc(Nc2ncc(F)c(Nc3ccc4c(n3)N(COP(=O)(O)O)C(=O)C(C)(C)O4)n2)cc(OC)c1OC [Fostamatinib (R788)]    3.33
Cc1nn(-c2ccccc2)c(C)c1C=NN1CCN(Cc2ccccc2)CC1    0.733
Cc1ccc(C(=O)c2ccc(CC(=O)O)n2C)cc1 [Tolmetin]    1.14

-- ask Given the compound COc1ccccc1OCC(O)CN1CCN(CC(=O)Nc2c(C)cccc2C)CC1 (stereo not given) [Ranolazine] , what is its reported Euclidean distance?
-- reply 0.669
